# TEST TARGET: PAPD5 (Homo sapiens, UniProt Q8NDF8)
# Construct: made in house
# Sequence (Q8NDF8 68-698 isoform Q8NDF8-5): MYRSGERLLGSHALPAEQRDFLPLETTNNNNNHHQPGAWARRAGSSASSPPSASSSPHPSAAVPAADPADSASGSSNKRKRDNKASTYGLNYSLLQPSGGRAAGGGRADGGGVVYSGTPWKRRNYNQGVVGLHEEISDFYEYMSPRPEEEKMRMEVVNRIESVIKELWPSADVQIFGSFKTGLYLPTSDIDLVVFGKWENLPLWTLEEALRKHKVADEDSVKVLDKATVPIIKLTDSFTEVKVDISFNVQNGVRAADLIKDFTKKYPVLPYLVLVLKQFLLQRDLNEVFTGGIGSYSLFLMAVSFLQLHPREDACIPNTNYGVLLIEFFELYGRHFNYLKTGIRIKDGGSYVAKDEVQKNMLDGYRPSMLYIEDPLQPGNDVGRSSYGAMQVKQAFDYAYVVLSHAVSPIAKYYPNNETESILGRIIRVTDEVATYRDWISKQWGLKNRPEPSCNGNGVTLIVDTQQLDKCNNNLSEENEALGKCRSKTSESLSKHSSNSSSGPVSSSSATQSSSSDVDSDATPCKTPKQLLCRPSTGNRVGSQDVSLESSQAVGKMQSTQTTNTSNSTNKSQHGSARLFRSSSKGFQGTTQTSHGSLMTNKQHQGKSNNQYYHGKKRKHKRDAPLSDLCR
# ASSAY DETAILS: High-throughput luminescence (KinaseGlo) RNA polyadenylation assay, ATP utilization by recombinant PAPD5
# Assay type: biochemical
# CONDITION PARAMETERS: Table 4 (entries of Table 5); 33 μM compound; ratio of luminescence with inhibitor to DMSO
# Procedure: Optimal conditions for an in vitro RNA polyadenylation assay using recombinant PAPD5, ATP and an oligonucleotide substrate were identified. The HTS assay involved ATP utilization by PAPD5, which reads out as a decreased luminescence signal produced by luciferase (KinaseGlo, Promega, Madison, WI). 100 nl of compound dissolved in DMSO was transferred to each well of the assay plate via pin transfer. […] The fold change was the ratio of luminescence from a sample with inhibitor compared to that with DMSO. […]
MEASURE: Fold-change determined at compound concentration 33 μM
// no unit string in output, number only

As a guide, the following entries are already answered.
| MOLECULE | ENDPOINT VALUE |
| --- | --- |
| CC(C)Cn1c(=O)c(-c2ccc(C(=O)Nc3ccc4c(c3)OCCO4)cc2)nc2ccccc21 | 1.086 |
| Cc1cc(C)c2c(=O)cc(CSc3nnc(-c4ccccc4)n3C)[nH]c2c1 | 1.066 |
| CCOC(=O)c1ccc(NC(=O)CCc2c(C)nc3c(c(C)nn3C)c2C)cc1 | 1.245 |

stdin: Kindly state the measured Fold-change determined at compound concentration 33 μM obtained for "CCn1cnc2c(=O)oc3ccc(S(=O)(=O)Nc4ccc(OC)cc4)cc3c21" with PAPD5 (Homo sapiens, UniProt Q8NDF8).
stdout: 1.319

stdin: Further, for "COc1ccc(NS(=O)(=O)c2ccc3c(c2)[C@H]2C=CC[C@H]2[C@@H](c2ccc(C(=O)O)cc2)N3)cc1" ?
stdout: 1.315

stdin: Okay, and "Cc1ccc(-n2nc3c(=O)n(CCCC(=O)NCc4ccccc4C)nc(C)c3c2C)cc1" ?
stdout: 1.091

stdin: Ok, now "COc1ccc(S(=O)(=O)Nc2cc3c(cc2Oc2ccccc2)n(C)c(=O)c(=O)n3C)cc1"
stdout: 1.082

stdin: Cc1ccc2cccc(NC(=O)c3cccnc3)c2n1 [Entry 86, N-(2-methylquinolin-8-yl)nicotinamide] ?
stdout: 1.085

stdin: Next entry: CC1Oc2ccc(C(=O)CSc3nc(-c4ccc(Cl)cc4)c(C#N)c(=O)[nH]3)cc2NC1=O (stereo not shown)
stdout: 1.256

stdin: Same thing, different molecule: "N#C/C(=C\c1ccc(-c2ccc(Cl)c(C(=O)O)c2)o1)c1nc2ccccc2[nH]1"
stdout: 1.236

stdin: Could you do the same for "CSc1nnc(NC(=O)c2cc(=O)c3cc(C)c(C)cc3o2)s1" , please?
stdout: 1.147

stdin: What do you get for "CCOc1ccc(-c2noc(Cn3cnc4c(cnn4-c4ccccc4)c3=O)n2)cc1OC" ?
stdout: 1.114

stdin: Proceed to "Cc1nn(CC(=O)O)c(=O)c2cc3cc(F)ccc3n12"
stdout: 1.118

stdin: Do the same for "O=C(CSc1nc(=O)c2ccccc2[nH]1)NCc1nc2ccccc2[nH]1" please
stdout: 1.171

stdin: Likewise for "c1cc(CNc2nc(C3CC3)nc3c2CCC3)ccn1" ?
stdout: 1.429

stdin: Moving on to the next molecule: "Cc1nnc(NC(=O)c2cc(=O)c3cc(F)ccc3o2)s1"
stdout: 1.1

stdin: Now this one: "CC(C)CCn1c(=O)c2ccccc2n2c(=S)[nH]nc12"
stdout: 1.372

stdin: Do the same for "CCOc1ccc2oc(=O)cc(CN3CCN(C(=O)c4ccc(OC)c(OC)c4)CC3)c2c1" please
stdout: 1.153

stdin: "Cc1ccc2[nH]c(=O)c3cc(C(=O)O)sc3c2c1" ?
stdout: 1.068

stdin: Try this molecule too: "Cc1csc(-c2cc(S(=O)(=O)Nc3cc(C)nc4ccccc34)c(C)s2)n1"
stdout: 1.073

stdin: Would you mind doing "Cc1ccc(Cn2c(SCc3ccc(C(=O)O)cc3)nc3cccnc32)cc1" as well?
stdout: 1.119

stdin: Next molecule: "CCOC(=O)c1c[nH]c2nc(NCc3cccc(Br)c3)nn2c1=O"
stdout: 1.212

stdin: Lookup "Cc1ccccc1CNC(=O)Cn1cc2c(n1)-c1c(oc(C(=O)N3CCCC3)c1C)CC2"
stdout: 1.302

stdin: Again, but for "CCSc1nnc(NC(=O)c2cc(=O)c3cc(C)c(C)cc3o2)s1"
stdout: 1.437
